Molecular target: Hα3β4 nAChRs (Homo sapiens, UniProt P30926+P32297)
Sequence (P32297 32-505): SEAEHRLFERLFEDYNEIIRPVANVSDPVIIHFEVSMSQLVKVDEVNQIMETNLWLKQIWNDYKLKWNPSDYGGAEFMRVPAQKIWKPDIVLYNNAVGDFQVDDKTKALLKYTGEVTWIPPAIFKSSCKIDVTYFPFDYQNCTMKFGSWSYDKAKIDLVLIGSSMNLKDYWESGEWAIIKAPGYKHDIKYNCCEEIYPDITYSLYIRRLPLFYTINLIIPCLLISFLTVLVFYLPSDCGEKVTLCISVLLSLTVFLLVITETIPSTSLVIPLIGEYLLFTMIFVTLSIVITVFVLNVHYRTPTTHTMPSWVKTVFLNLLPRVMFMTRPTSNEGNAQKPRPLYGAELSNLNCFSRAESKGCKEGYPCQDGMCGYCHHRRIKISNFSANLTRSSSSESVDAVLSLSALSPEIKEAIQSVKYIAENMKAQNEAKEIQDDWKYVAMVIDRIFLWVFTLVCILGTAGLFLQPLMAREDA
Sequence (P30926 22-498): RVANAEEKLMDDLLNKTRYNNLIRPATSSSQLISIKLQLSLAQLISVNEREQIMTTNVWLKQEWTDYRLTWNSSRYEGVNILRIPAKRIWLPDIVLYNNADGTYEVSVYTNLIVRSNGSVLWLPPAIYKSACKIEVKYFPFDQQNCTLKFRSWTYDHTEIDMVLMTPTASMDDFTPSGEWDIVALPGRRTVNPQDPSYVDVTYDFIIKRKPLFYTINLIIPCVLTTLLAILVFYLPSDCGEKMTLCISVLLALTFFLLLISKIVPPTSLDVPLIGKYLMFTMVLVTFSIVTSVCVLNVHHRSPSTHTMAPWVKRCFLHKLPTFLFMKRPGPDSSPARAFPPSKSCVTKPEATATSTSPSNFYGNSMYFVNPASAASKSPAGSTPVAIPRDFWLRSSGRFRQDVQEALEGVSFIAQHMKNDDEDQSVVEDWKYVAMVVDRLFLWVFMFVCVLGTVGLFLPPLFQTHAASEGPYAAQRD
Test: Inhibition of Hα3β4 nAChRs by NAMs

- Molecule: "O=C(NCc1ccccc1)c1ccccc1-c1ccccc1 [COB-170]"
  Tested system: "Hα3β4 nAChRs (Homo sapiens, UniProt P30926+P32297)"
  IC50: "8.5 µM"
- Molecule: "O=C(OCC1CCCN(CCCc2ccccc2)C1)c1ccccc1-c1cccc2ccccc12 (centres unmarked) [FFB-1]"
  Tested system: "Hα3β4 nAChRs (Homo sapiens, UniProt P30926+P32297)"
  IC50: "178 µM"

---

Molecular target: Hα3β4 nAChRs (Homo sapiens, UniProt P30926+P32297)
Assay: Inhibition of Hα3β4 nAChRs by NAMs
Assay type: cell-based
Conditions: COB series
Overview of reported nH, Hill coefficient, Hα3β4 nAChRs across a group of molecules:

- Molecule: "O=C(NCc1ccccc1)c1ccccc1-c1ccccc1 [COB-170]"
  Tested system: "Hα3β4 nAChRs (Homo sapiens, UniProt P30926+P32297)"
  nH, Hill coefficient, Hα3β4 nAChRs: "−1.8"
- Molecule: "O=C(Nc1ccccc1)c1ccccc1-c1ccccc1 [COB-171]"
  Tested system: "Hα3β4 nAChRs (Homo sapiens, UniProt P30926+P32297)"
  nH, Hill coefficient, Hα3β4 nAChRs: "−2.2"
- Molecule: "O=C(NCc1cccc2ccccc12)c1ccccc1-c1ccccc1 [COB-172]"
  Tested system: "Hα3β4 nAChRs (Homo sapiens, UniProt P30926+P32297)"
  nH, Hill coefficient, Hα3β4 nAChRs: "−0.4"
- Molecule: "O=C(Nc1cccc2ccccc12)c1ccccc1-c1ccccc1 [COB-175]"
  Tested system: "Hα3β4 nAChRs (Homo sapiens, UniProt P30926+P32297)"
  nH, Hill coefficient, Hα3β4 nAChRs: "−1.2"
- Molecule: "O=C(Nc1ccncn1)c1ccccc1-c1ccccc1 [COB-174]"
  Tested system: "Hα3β4 nAChRs (Homo sapiens, UniProt P30926+P32297)"
  nH, Hill coefficient, Hα3β4 nAChRs: "−0.9"
- Molecule: "O=C(Nc1ccccn1)c1ccccc1-c1ccccc1 [COB-173]"
  Tested system: "Hα3β4 nAChRs (Homo sapiens, UniProt P30926+P32297)"
  nH, Hill coefficient, Hα3β4 nAChRs: "−0.9"

---

Target: Hα4β2 nAChRs (Homo sapiens, UniProt P17787+P43681)
Sequence (P43681 29-627 limits assumed): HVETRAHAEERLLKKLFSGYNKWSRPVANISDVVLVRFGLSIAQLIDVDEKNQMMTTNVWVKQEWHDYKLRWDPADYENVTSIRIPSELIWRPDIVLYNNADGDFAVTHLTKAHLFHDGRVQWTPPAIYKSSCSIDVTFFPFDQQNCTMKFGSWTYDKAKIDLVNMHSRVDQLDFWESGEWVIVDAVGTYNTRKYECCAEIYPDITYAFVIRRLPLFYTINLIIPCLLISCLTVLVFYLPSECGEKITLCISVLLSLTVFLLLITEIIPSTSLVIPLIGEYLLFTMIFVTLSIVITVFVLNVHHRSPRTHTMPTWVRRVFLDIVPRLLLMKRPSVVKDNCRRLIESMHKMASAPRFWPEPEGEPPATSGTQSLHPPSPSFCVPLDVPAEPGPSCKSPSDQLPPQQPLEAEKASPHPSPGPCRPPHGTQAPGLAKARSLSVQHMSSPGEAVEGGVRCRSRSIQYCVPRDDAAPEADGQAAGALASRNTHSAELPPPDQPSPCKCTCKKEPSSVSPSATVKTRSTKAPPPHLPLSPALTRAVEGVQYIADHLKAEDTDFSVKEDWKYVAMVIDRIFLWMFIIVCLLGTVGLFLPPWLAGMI
Sequence (P17787 26-502): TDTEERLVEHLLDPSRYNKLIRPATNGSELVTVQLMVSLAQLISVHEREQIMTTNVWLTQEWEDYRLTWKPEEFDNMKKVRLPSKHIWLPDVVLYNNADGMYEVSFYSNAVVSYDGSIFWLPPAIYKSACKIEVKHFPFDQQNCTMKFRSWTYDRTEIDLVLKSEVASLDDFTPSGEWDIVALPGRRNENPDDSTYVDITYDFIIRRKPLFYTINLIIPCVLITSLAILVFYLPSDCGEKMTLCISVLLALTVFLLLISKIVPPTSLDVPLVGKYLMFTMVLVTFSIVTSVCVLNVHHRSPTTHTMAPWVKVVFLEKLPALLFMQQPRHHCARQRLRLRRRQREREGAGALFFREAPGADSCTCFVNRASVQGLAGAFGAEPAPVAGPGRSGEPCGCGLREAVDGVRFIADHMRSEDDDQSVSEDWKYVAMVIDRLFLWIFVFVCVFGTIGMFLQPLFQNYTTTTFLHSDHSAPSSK
Assay: cell-based
Format: cell-based
Conditions: COB series
Output Yes for records whose nH, Hill coefficient, Hα4β2 nAChRs is lower than -1, No for records at or above -1.

- Compound structure string: "O=C(NCc1cccc2ccccc12)c1ccccc1-c1ccccc1"
  Category: "No"
- Compound structure string: "O=C(Nc1ccccc1)c1ccccc1-c1ccccc1"
  Category: "Yes"
- Compound structure string: "O=C(NCc1ccccc1)c1ccccc1-c1ccccc1"
  Category: "Yes"
- Compound structure string: "O=C(Nc1ccncn1)c1ccccc1-c1ccccc1"
  Category: "Yes"
- Compound structure string: "O=C(Nc1cccc2ccccc12)c1ccccc1-c1ccccc1"
  Category: "No"

---

Molecular target: Hα4β2 nAChRs (Homo sapiens, UniProt P17787+P43681)
Experiment: cell-based
pIC50: −log10 of the molar value.
Measure: pIC50

- Compound: "O=C(OC1CCCN(C(=O)CCc2ccccc2)C1)c1ccccc1-c1ccccc1 (stereo not shown)"
  Tested system: "Hα4β2 nAChRs (Homo sapiens, UniProt P17787+P43681)"
  Endpoint result: 5.57

Data provenance: paper PMC3274641
